FYI, the data here is from patent US8901118B2.

Collected pIC50 values appear next to each entry.
# MEASUREMENT TARGET: CYP1A2 (Homo sapiens, UniProt P05177)
# Sequence (P05177 1-516): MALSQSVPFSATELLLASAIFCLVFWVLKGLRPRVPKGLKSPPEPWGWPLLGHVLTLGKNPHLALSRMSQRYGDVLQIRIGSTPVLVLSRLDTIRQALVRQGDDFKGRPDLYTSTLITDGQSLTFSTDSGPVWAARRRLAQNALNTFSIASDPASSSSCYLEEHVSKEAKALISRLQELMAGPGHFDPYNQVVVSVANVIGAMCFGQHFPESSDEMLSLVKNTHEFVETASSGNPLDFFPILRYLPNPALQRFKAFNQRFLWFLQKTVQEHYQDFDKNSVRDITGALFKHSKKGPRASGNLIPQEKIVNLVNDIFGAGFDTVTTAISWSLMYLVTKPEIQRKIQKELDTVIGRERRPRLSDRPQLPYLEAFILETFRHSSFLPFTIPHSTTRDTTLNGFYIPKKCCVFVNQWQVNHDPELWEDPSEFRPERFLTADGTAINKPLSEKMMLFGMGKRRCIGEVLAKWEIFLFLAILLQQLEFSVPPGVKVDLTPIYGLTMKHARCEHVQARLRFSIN
pIC50: −log10 of the molar value.

Some compounds with known pIC50 results, for comparison:
>>> observed_value("CCOc1ncnc2[nH]cc(Cc3ccc(Nc4cnn(CC)c4)nc3F)c12")
"< 5.00"
>>> observed_value("CCCCNc1ncnc2[nH]cc(C(=O)c3ccc(Nc4ccc(CC)nc4)nc3F)c12")
"> 5.30"
>>> observed_value("CCOc1ccc(Nc2ccc(Cc3c[nH]c4ncnc(OCCOC)c34)c(F)n2)cn1")
"< 5.00"
>>> observed_value("CCOc1ncnc2[nH]cc(C(=O)c3ccc(Nc4ccc(OC)nc4)nc3F)c12")
"< 5.00"
>>> observed_value("O=C(c1ccc(NC2CCC(F)(F)CC2)nc1F)c1c[nH]c2ncnc(NCC(F)(F)F)c12")
"< 5.00"
>>> observed_value("Cc1cnc2[nH]cc(Cc3cnc(Nc4ccc(C(F)(F)F)nc4)nc3)c2c1")
"< 5.00"
>>> observed_value("Fc1nc(NC2CCC(F)(F)CC2)ccc1Cc1c[nH]c2ncc(Cl)cc12")
"5.00 to 5.30"

Consider the additional compound presented here.
For "CCc1ccc(Nc2ccc(C(=O)c3c[nH]c4ncnc(NCC(F)(F)F)c34)c(F)n2)cn1" , what is its reported pIC50?
> 5.30

###

# MEASUREMENT TARGET: Fms kinase (Homo sapiens, UniProt P07333)
# Sequence (P07333 20-972): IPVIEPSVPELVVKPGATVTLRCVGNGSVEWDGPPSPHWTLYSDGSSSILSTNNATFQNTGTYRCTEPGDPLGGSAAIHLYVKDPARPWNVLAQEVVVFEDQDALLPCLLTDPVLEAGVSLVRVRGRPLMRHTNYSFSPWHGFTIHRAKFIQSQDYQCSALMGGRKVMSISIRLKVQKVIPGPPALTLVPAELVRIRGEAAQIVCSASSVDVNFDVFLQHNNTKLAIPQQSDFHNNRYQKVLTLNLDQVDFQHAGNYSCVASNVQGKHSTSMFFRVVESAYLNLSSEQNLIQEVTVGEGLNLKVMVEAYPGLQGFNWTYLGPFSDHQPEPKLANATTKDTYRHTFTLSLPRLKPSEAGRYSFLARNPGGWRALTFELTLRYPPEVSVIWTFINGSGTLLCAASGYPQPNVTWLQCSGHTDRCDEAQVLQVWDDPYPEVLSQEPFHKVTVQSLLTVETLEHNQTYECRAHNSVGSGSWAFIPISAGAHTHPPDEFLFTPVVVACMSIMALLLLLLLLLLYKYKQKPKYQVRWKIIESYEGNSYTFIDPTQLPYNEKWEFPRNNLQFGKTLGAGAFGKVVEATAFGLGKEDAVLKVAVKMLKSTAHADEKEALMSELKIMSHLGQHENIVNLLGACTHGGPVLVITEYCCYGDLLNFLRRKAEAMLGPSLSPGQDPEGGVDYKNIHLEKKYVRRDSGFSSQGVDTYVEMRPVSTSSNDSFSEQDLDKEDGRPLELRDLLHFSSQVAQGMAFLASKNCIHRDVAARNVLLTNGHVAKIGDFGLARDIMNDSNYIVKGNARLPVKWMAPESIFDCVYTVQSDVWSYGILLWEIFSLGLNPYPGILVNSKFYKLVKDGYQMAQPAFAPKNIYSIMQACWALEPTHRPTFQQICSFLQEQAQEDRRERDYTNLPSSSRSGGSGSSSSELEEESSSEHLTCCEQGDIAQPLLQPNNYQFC
# PROTOCOL DETAILS: Fms kinase biochemical activity assay (AlphaScreen, biotin-(E4Y)10 phosphorylation)
# SETTINGS: 100 μM ATP; read-out: Biochemical Inhibition IC50 Fms
pIC50: −log10 of the molar value.
PARAMETER: pIC50

Some compounds with known pIC50 results, for comparison:
>>> observed_value("CCc1ccc(Nc2ccc(C(=O)c3c[nH]c4ncnc(NC5CCC(F)(F)CC5)c34)c(F)n2)cn1")
"> 7.00"
>>> observed_value("CC(C)Nc1ncnc2[nH]cc(C(=O)c3ccc(NC4CCCCC4)nc3F)c12")
"> 7.00"
>>> observed_value("O=C(c1ccc(NC2CCC(F)(F)CC2)nc1Cl)c1c[nH]c2ncnc(NC3CC3)c12")
"> 7.00"

API: value(readout=pIC50, system=Fms kinase (Homo sapiens, UniProt P07333)) for record "COc1ccc(Nc2ccc(C(=O)c3c[nH]c4ncnc(NCc5ccc(C(F)(F)F)nc5)c34)c(F)n2)cn1"
> 6.00

API: value(readout=pIC50, system=Fms kinase (Homo sapiens, UniProt P07333)) for record "Cc1cnc2[nH]cc(Cc3cnc(Nc4ccc(S(C)(=O)=O)cc4)nc3)c2c1"
> 7.00

API: value(readout=pIC50, system=Fms kinase (Homo sapiens, UniProt P07333)) for record "Clc1cnc2[nH]cc(Cc3cnc(NC4CCCCCC4)nc3)c2c1"
> 8.00

API: value(readout=pIC50, system=Fms kinase (Homo sapiens, UniProt P07333)) for record "CCc1ccc(Nc2ccc(C(=O)c3c[nH]c4ncnc(NCC(F)(F)F)c34)c(F)n2)cn1"
> 7.00

API: value(readout=pIC50, system=Fms kinase (Homo sapiens, UniProt P07333)) for record "CCNc1ncnc2[nH]cc(C(=O)c3ccc(Nc4ccc(C5CC5)nc4)nc3F)c12"
> 8.00

API: value(readout=pIC50, system=Fms kinase (Homo sapiens, UniProt P07333)) for record "COc1ccc(Nc2ccc(C(=O)c3c[nH]c4ncnc(N5CCOCC5)c34)c(F)n2)cn1"
< 6.00

API: value(readout=pIC50, system=Fms kinase (Homo sapiens, UniProt P07333)) for record "CCNc1ncnc2[nH]cc(C(=O)c3ccc(Nc4ccc(CC)nc4)nc3F)c12"
> 8.00

API: value(readout=pIC50, system=Fms kinase (Homo sapiens, UniProt P07333)) for record "Cc1cnc2[nH]cc(Cc3ccc(NC4CCCCC4)nc3F)c2c1"
> 7.00

API: value(readout=pIC50, system=Fms kinase (Homo sapiens, UniProt P07333)) for record "CCn1cc(Nc2ccc(Cc3c[nH]c4ncnc(C)c34)c(F)n2)cn1"
> 8.00

API: value(readout=pIC50, system=Fms kinase (Homo sapiens, UniProt P07333)) for record "COc1ncnc2[nH]cc(Cc3ccc(Nc4ccc(C5CC5)nc4)nc3F)c12"
> 7.00

API: value(readout=pIC50, system=Fms kinase (Homo sapiens, UniProt P07333)) for record "CCC(CC)Nc1ncnc2[nH]cc(C(=O)c3ccc(Nc4ccc(OC)nc4)nc3F)c12"
> 7.00

API: value(readout=pIC50, system=Fms kinase (Homo sapiens, UniProt P07333)) for record "Clc1ccc(Nc2ncc(Cc3c[nH]c4ncc(Cl)cc34)cn2)cc1"
> 8.00

API: value(readout=pIC50, system=Fms kinase (Homo sapiens, UniProt P07333)) for record "COc1ccc(Nc2ccc(C(=O)c3c[nH]c4ncnc(NC5CCC(F)(F)CC5)c34)c(F)n2)cn1"
> 7.00
